Origin of values: PubChem BioAssay AID1851

TARGET: Cytochrome P450 1A2 (Homo sapiens)
TEST PROTOCOL: Cytochrome panel assay with activity outcomes
RECORDED CONDITIONS: recombinant CYP, pro-luciferin dealkylation, luminescence, p450-cyp1a2; series mostly up to 57.1 µM
In all, about 16,000 compounds went through this assay and about 5,700 (36%) were called active. Roughly 24% stayed inconclusive and do not appear here. Calls come from the whole dose curve; as a rule, active = well fitted curve in the direction sought with a large enough effect; inconclusive = small, poorly fitted or top-dose-only effect, or effect the other way; inactive = no such curve, though single readings can be large or run the other way. This is one part of the list.
Your reply should match one of these outcome classes. t = active, f = inactive

[Q] Look up the recorded call for `CC(C)(C)c1onc(OCP(=O)(O)O)c1C[C@@H](N)C(=O)O` in this test.
[A] f

[Q] Field: outcome | Entry: `N#Cc1cccc(-c2ccc3ncnc(NCc4cccs4)c3c2)c1`
[A] t

[Q] For this molecule, state the assay outcome: CC[C@H]1C2=C3C(CC[C@H]4C(OCc5ccc(F)cc5C(F)(F)F)OC[C@](C)([C@@H]34)N(C(=O)OC(C)(C)C)C2)C(COC)C1COC (stereo partly drawn)
[A] f

[Q] Hello, I am checking results. What call was entered for `COc1ccc(C=O)cc1COc1ccc(C)cc1[N+](=O)[O-]` ?
[A] t

[Q] Identify the outcome logged in this assay for the molecule shown: `O=S(=O)(c1ccccc1)c1cnc(-c2cccnc2)nc1-c1ccc(Cl)cc1Cl`
[A] t

[Q] // param item: `COc1ccccc1CC(=O)O/N=C(\N)Cc1cccc2ccccc12` ; yields the recorded call
[A] t

[Q] State the result this test recorded for `O=S(=O)(c1ccc(Cl)cc1)c1cnc(-c2cccnc2)nc1-c1ccccc1` .
[A] f

[Q] In this assay, the call recorded for `Clc1ccccc1-c1nccc(NCc2ccccc2)n1` was what?
[A] t

[Q] Recorded call for `Cc1cccc(CNc2ncnc3ccc(-c4cccc(C#N)c4)cc23)c1` ?
[A] t

[Q] So what was the verdict on `CSc1nnc(-c2sccc2OCc2ccccc2)n1C` in this test?
[A] t

[Q] Assay outcome for `COc1ccc(CC(=O)O/N=C(\N)Cc2ccc(OC)cc2)cc1` : what was it?
[A] f

[Q] Outcome? `c1csc(CNc2ncnc3ccc(-c4ccoc4)cc23)c1`
[A] t

[Q] What did the test return for `CSc1n[nH]c(-c2sccc2OCc2ccc(C)cc2)n1` ?
[A] t

[Q] Outcome logged for `Cc1nc2c(C(=O)N3CCOCC3)cnn2c(C)c1Cc1ccc(Cl)cc1` in this assay:
[A] t

[Q] Could you kindly confirm the outcome this assay logged for `COc1ccccc1CNC(=O)C/C(C)=N/NC(=O)Cc1ccccc1` ?
[A] f

[Q] Record lookup: outcome of this test for `CS(=O)(=O)N1CCC[C@@]2(CCN(c3ccncc3)C2)C1` ?
[A] f

[Q] I'd appreciate the recorded outcome for Cc1cccc(C(=O)NNC(=O)C2CCCO2)c1 (stereo not drawn) from this test.
[A] f

[Q] What did this assay record as the result for `C=CCNCCOCCOc1ccc(C)cc1[N+](=O)[O-]` ?
[A] t

[Q] I'd appreciate the recorded outcome for `OC[C@@H]1O[C@H](O)[C@@H](Cl)[C@H](O)[C@@H]1O` from this test.
[A] f

[Q] Which result was noted for this molecule in the test: `Cn1c(-c2sccc2OCc2ccccc2)n[nH]c1=S`
[A] t

[Q] What call does the record list for `COc1ccccc1C/C(N)=N/OC(=O)c1ccc(C)c([N+](=O)[O-])c1` ?
[A] t

[Q] Could you check what this test reported for `Clc1ccccc1NN(Cc1ccncc1)c1ccccc1Cl` ?
[A] t

[Q] I'd appreciate the recorded outcome for `Cc1cccc(CNc2ccnc(-c3ccccc3Cl)n2)c1` from this test.
[A] t
